meta.source: patent US9108902B2

Assay: Pharmacokinetic study in chimps after oral and intravenous co-dosing: plasma levels by LC-MS/MS
Type: in vivo
Conditions: plasma, iv, 50 mg, plasma; Chimp 1; IV infusion 50 mg of each compound over 30 min, co-administered 1:1; read-out: AUC(0-24)

[
  {
    "Molecule": "COC[C@@H](NC(C)=O)C(=O)NCc1ccccc1 [Lacosamide, reference compound]",
    "AUC(0-t)": "27600 ng·h/mL"
  },
  {
    "Molecule": "[2H]C([2H])([2H])OC[C@@H](NC(=O)C([2H])([2H])[2H])C(=O)NCc1ccccc1",
    "AUC(0-t)": "31300 ng·h/mL"
  }
]

* * *

Experiment: Pharmacokinetic study in chimps after oral and intravenous co-dosing: plasma levels by LC-MS/MS
Format: in vivo
Settings: plasma, iv, 50 mg, plasma; Chimp 2; IV infusion 50 mg of each compound over 30 min, co-administered 1:1
Cmax for assorted molecules
Parameter measured: Cmax (ng/mL)

[
  {
    "Molecule": "[2H]C([2H])([2H])OC[C@@H](NC(=O)C([2H])([2H])[2H])C(=O)NCc1ccccc1",
    "Parameter measured": "Cmax",
    "Recorded result": 1690
  },
  {
    "Molecule": "COC[C@@H](NC(C)=O)C(=O)NCc1ccccc1 [Lacosamide, reference compound]",
    "Parameter measured": "Cmax",
    "Recorded result": 1560
  }
]

* * *

Reported AUC(0-t) values for a set of molecules
Assay: Pharmacokinetic study in chimps after oral and intravenous co-dosing: plasma levels by LC-MS/MS
Type: in vivo
Conditions: plasma, po, 50 mg, plasma; Chimp 3; PO gavage single 50 mg dose of each compound, co-administered 1:1; read-out: AUC(0-24)

[
  {
    "Molecule": "COC[C@@H](NC(C)=O)C(=O)NCc1ccccc1 [Lacosamide, reference compound]",
    "AUC(0-t) (µg·h/mL)": 20.4
  },
  {
    "Molecule": "[2H]C([2H])([2H])OC[C@@H](NC(=O)C([2H])([2H])[2H])C(=O)NCc1ccccc1 [Compound 120]",
    "AUC(0-t) (µg·h/mL)": 23.1
  }
]

* * *

Test: Pharmacokinetic study in chimps after oral and intravenous co-dosing: plasma levels by LC-MS/MS
Format: in vivo
Conditions: plasma, iv, 50 mg, plasma; Chimp 1; IV infusion 50 mg of each compound over 30 min, co-administered 1:1

[
  {
    "Molecule": "[2H]C([2H])([2H])OC[C@@H](NC(=O)C([2H])([2H])[2H])C(=O)NCc1ccccc1 [Compound 120]",
    "Units label": "ng/mL",
    "Cmax": 5280
  },
  {
    "Molecule": "COC[C@@H](NC(C)=O)C(=O)NCc1ccccc1 [Lacosamide, reference compound]",
    "Units label": "ng/mL",
    "Cmax": 4770
  }
]

* * *

Assay: Pharmacokinetic study in chimps after oral and intravenous co-dosing: plasma levels by LC-MS/MS
Format: in vivo
Details: plasma, iv, 50 mg, plasma; Chimp 2; IV infusion 50 mg of each compound over 30 min, co-administered 1:1; read-out: AUC(0-24)
Parameter measured: AUC(0-t) (ng·h/mL)

[
  {
    "Molecule": "COC[C@@H](NC(C)=O)C(=O)NCc1ccccc1 [Lacosamide, reference compound]",
    "Recorded result": 23000
  },
  {
    "Molecule": "[2H]C([2H])([2H])OC[C@@H](NC(=O)C([2H])([2H])[2H])C(=O)NCc1ccccc1",
    "Recorded result": 25400
  }
]
